- target_system: T1, human GFRAL (human, UniProt Q6UXV0 19-394)
- T1 sequence (looked up): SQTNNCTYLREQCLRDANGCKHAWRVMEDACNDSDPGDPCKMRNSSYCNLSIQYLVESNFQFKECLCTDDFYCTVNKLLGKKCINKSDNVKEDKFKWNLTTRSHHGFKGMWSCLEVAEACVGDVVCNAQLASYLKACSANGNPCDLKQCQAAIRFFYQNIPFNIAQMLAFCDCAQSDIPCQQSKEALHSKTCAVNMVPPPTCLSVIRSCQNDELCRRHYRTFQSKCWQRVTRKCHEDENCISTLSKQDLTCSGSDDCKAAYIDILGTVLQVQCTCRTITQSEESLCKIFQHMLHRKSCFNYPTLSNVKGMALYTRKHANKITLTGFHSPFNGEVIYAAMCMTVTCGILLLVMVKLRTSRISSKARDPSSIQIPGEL
- procedure_summary: cell-based or functional assay
value_type: GDF15 activity (EC50, pM)

[[record]]
binder = "MLC107 (ligand, Moiety B (HOOC-(CH2)16-CO-gGlu-2XADO-EDA-CO-CH2) on 25C of Linker (56C of fusion polypeptide)) HGEGTFTSDVSSYLEEQAAKEFIAWLVRGGGGAQPGAQPGAQPGAQPGAQPGAQPCQAPGAQPGQEPGAQPGQEPGAQPGQEPGAQPGQEPGAQPGQEPGAQPGQEPGAQPARQGDHCPLGPGRCCRLHTVRASLEDLGWADWVLSPREVQVTMCIGACPSQFRAANLHAQIKTSLHRLKPDTVPAPCCVPASYNPMVLIQKTDTGVSLQTYDDLLAKDCHCI"
reported_result = 59.3

[[record]]
binder = "MLC046 (ligand, Moiety A (HOOC-(CH2)16-CO-gGlu-2XADO) on 60K of linker (91K of fusion polypeptide)) HGEGTFTSDVSSYLEEQAAREFIAWLVRGGGGQEPGAQPGQEPGAQPGQEPGAQPGQEPGAQPGQEPGAQPGQEPGAQPGAQPGAQPGAQKGAQPGAQPGAQPGAQPGAQPARQGDHCPLGPGRCCRLHTVRASLEDLGWADWVLSPREVQVTMCIGACPSQFRAANLHAQIKTSLHRLRPDTVPAPCCVPASYNPMVLIQRTDTGVSLQTYDDLLARDCHCI"
reported_result = 78.9

[[record]]
binder = "MLC084 (ligand, Moiety C (HOOC-(CH2)20-CO-gGlu-2XADO-EDA-CO-CH2) on 39C of Linker (70C of fusion polypeptide)) HGEGTFTSDVSSYLEEQAAKEFIAWLVRGGGGQEPGAQPGQEPGAQPGQEPGAQPGQEPGAQPGQEPGQCPGQEPGAQPGAQPGAQPGAQPGAQPGAQPGAQPGAQPGAQPARQGDHCPLGPGRCCRLHTVRASLEDLGWADWVLSPREVQVTMCIGACPSQFRAANLHAQIKTSLHRLKPDTVPAPCCVPASYNPMVLIQKTDTGVSLQTYDDLLAKDCHCI"
reported_result = 70.5

[[record]]
binder = "MLC074 (ligand, Moiety B (HOOC-(CH2)16-CO-gGlu-2XADO-EDA-CO-CH2) on 41C of Linker (72C of fusion polypeptide)) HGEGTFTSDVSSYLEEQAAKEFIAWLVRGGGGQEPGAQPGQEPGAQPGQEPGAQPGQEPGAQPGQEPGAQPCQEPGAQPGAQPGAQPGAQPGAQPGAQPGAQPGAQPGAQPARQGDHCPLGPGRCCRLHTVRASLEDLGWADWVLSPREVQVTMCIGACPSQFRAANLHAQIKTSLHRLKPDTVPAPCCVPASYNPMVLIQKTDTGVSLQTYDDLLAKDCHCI"
reported_result = 41.1

[[record]]
binder = "MLC088 (ligand, Moiety C (HOOC-(CH2)20-CO-gGlu-2XADO-EDA-CO-CH2) on 41C of Linker (72C of fusion polypeptide)) HGEGTFTSDVSSYLEEQAAKEFIAWLVRGGGGAQPGAQPGAQPGAQPGAQPGAQPGAQPGAQPGQEPGAQPCQEPGAQPGQEPGAQPGQEPGAQPGQEPGAQPGQEPGAQPARQGDHCPLGPGRCCRLHTVRASLEDLGWADWVLSPREVQVTMCIGACPSQFRAANLHAQIKTSLHRLKPDTVPAPCCVPASYNPMVLIQKTDTGVSLQTYDDLLAKDCHCI"
reported_result = 30.2


a: MLC020 (ligand) HGEGTFTSDVSSYLEEQAAKEFIAWLVRGGGGQEPGQEPGQEPGQEPGQEPGQEPGQEPGQEPGAQPGAQPARQGDHCPLGPGRCCRLHTVRASLEDLGWADWVLSPREVQVTMCIGACPSQFRAANLHAQIKTSLHRLKPDTVPAPCCVPASYNPMVLIQKTDTGVSLQTYDDLLAKDCHCI
b: MLC100 (ligand) HGEGTFTSDVSSYLEEQAAKEFIAWLVRGGGGQEPARQGDHCPLGPGRCCRLHTVRASLEDLGWADWVLSPREVQVTMCIGACPSQFRAANLHAQIKTSLHRLKPDTVPAPCCVPASYNPMVLIQKTDTGVSLQTYDDLLAKDCHCI
Task: Of the pair a and b , name the member with the lesser recorded GDF15 activity (EC50, pM). Answer by stating the label of the chosen item.
Output: b
(b: 29.9 pM, a: 55.9 pM)
